# assay.system: T1, KRAS G12V peptide on HLA-A*11:01 (human)
# T1 peptide: VVVGAVGVGK
# method: cytokine release
experimental.endpoint: binding result

INSERT INTO results (binder, result) VALUES
  ('TRAV4-4/DV10*01/BV12-2*01 murine anti-KRAS G12D TCR (SEQ ID NOs: 157 and 158) (TCR, V domains shown) Valpha: GDQVEQSPSALSLHEGTDSALRCNFTTTMRSVQWFRQNSRGSLISLFYLASGTKENGRLKSAFDSKERRYSTLHIRDAQLEDSGTYFCAADSSNTGYQNFYFGKGTSLTVIP Vbeta: NSGVVQSPRYIIKGKGERSILKCIPISGHLSVAWYQQTQGQELKFFIQHYDKMERDKGNLPSRFSVQQFDDYHSEMNMSALELEDSAVYFCASSLTDPLDSDYTFGSGTRLLVI', 'no recognition'),
  ('TRAV16D/DV11*03 + TRBV4*01 (TCR) alpha TRAV16D/DV11*03 52*01 CDR3: CAMREDTGANTGKLTF Vbeta: ETAVFQTPNYHVTQVGNEVSFNCKQTLGHDTMYWYKQDSKKLLKIMFSYNNKQLIVNETVPRRFSPQSSDKAHLNLRIKSVEPEDSAVYLCASSSRDWSAETLYFGSGTRLTVL', 'no recognition');
